These measurements were taken from patent US20240059758A1.

target: S1-mFc (UniProt P0DTC2 14-694); experiment: ELISA
measured-quantity: EC50 (nM)
Number in nM, nothing else.

- STE70-1E12 (antibody, V domains shown) VH: QMQLVQSGAEVKKPGASVKVSCKASGYTFTGYYMHWVRQAPGQGLEWMGRINPNSGGTNYAQKFQGRVTMTRDTSTSTAYMELSRLRSDDTAVYYCVRDGYNFNNWFDPWGQGTLVTVSS VL: NFMLTQPHSVSGSPGETITISCTGSGGSIASNYVQWYRQRPGSAPTIVIYEDTQRPSGVPDRFSGSIDSSSNSASLTISGLKTEDEADYYCQSSESTNHVMFGGGSKLTVL: 1.5

Let's switch to this binder now.
For the binder STE72-2G4 (antibody, V domains shown) VH: QVQLVQSGAEVKKPGASVKVSCKASGYTFTSYGISWVRQAPGQGLEWMGWISAYNGNTNYAQKLQGRVTMTTDTSTSTAYMELRSLRSDDTAVYYCARFFYDSSGYSTDYWGQGTLVTVSS VL: ETTLTQSPAFMSVTPGDRAILSCRASQSVDSHLAWYHQKPGQPPRLLIYGASTRATGIPARFSGSRSGTEFTLTISGLQSEDLGVYYCQQYASWPPGYNFGQGTKLEIK , give its measured EC50 value.
0.9
